- TGT: HCV NS3 helicase NS3h_1b(con1) (Hepatitis C virus genotype 1b, UniProt Q9WMX2)
- Construct: truncated C-terminally His-tagged NS3 proteins lacking the N-terminal protease, called NS3h; His-tag (C); made in house
- Sequence (Q9WMX2 1192-1657): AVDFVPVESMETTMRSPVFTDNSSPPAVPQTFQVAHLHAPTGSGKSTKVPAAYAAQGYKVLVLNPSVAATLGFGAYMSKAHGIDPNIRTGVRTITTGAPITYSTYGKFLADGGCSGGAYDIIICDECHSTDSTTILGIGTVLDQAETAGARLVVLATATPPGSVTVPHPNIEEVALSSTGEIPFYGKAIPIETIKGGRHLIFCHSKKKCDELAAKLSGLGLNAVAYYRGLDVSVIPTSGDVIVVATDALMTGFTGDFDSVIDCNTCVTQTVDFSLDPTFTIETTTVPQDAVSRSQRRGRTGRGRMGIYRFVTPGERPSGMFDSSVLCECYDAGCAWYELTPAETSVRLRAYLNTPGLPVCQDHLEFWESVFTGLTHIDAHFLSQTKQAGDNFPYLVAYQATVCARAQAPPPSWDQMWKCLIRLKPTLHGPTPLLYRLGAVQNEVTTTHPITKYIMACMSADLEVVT
- EXPERIMENT_SUMMARY: MBHA screen of NCI mechanistic set library at 20 μM (percent inhibition, compound interference)
- Type: biochemical
- TEST_SETTINGS: compounds at 20 μM, MBHA with DNA substrate; calculated from Equation 1
- Method: All molecular beacon-based helicase assays (MBHAs) were performed according to known methods (Belon & Frick (2008) supra; Belon & Frick (2009) supra). […] Fluorescence was read before ATP (F0) addition and 30 minutes after ATP was added to 1 mM (F30) using a Tecan Infinite M200 fluorescence microplate reader with excitation and emission wavelengths set to 643 and 670 nm, respectively. […]
Examples of compounds with documented Inh. (%) (Inhibition) follow.
Express the result in % but write the number alone.

// below: answered compounds
CCCCCCCCCCCCCCCCCCOCC(COP(=O)([O-])OCC[N+](C)(C)C)OC (stereo not shown) : −15.0
CO[C@H]1[C@@H](O)[C@@H](C)O[C@H](O[C@H]2[C@H](Oc3cccc4c(O)c5c(=O)oc6ccc(C)c7c(=O)oc(c34)c5c67)O[C@H](C)[C@H](O)[C@@H]2O)[C@@H]1O : 38.6
O=c1[nH]c2ccccc2n1C1CCN(CCCC(c2ccc(F)cc2)c2ccc(F)cc2)CC1 : 4.7

// assay HCV NS3 helicase NS3h_1b(con1) (Hepatitis C virus genotype 1b, UniProt Q9WMX2), entry Cc1ccc2c(c1)C1(C)OC(C=CC1=O)O2 (stereo not shown) , Inh. (%) (Inhibition) value = −0.7
